# Test system: Fer (mouse);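 further: 11-residue human phosphosite peptides and single-mutation variants displayed on the E. coli surface, counted by deep sequencing, each peptide's frequency after selection divided by its frequency in the unselected input library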;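 further: frequency after pTyr selection over input frequency; kinase dosed for 20-30% of maximal phosphorylation in three min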
# method_summary: phosphorylation enrichment, bacterial display (enrichment ratio); higher = better substrate or ligand; peptides without Tyr show the background
Classification field: enter True for phosphorylation enrichment values not below 0.7, False for values below it.

> print(dat)
                        item.sequence  target.under.test  category
 1            SSSGAYGGGYG [KRT19_Y61]        Fer (mouse)     False
 2     KLASTYREAAT [DEAF1_Y483_H479L]        Fer (mouse)     False
 3    SSREGYVRHHN [FAM83B_Y433_S435R]        Fer (mouse)     False
 4    FATAGYGSLEA [EPHA10_Y959_A956T]        Fer (mouse)     False
 5        ADFPDYKFRPR [SOX11_Y116_YF]        Fer (mouse)     False
 6            KTTSGYAGGLS [KRT8_Y419]        Fer (mouse)     False
 7        RLLVVYPWTQK [HBG1_Y36_R41K]        Fer (mouse)     False
 8    GYEEAYSVSKK [PAFAH1B1_Y28_F31S]        Fer (mouse)     False
 9      RLGVTYEQALA [MAP2_Y996_G991R]        Fer (mouse)     False
10        FSEVRYVKEPF [HIPK4_Y170_YF]        Fer (mouse)     False
11    TISPFYCQSLF [CRYAA_Y48_R49C_YF]        Fer (mouse)      True
12            LTTPTYGDLNH [TUBB_Y222]        Fer (mouse)      True
13         FLTQHHDAKPQ [ANG_Y38_Y38H]        Fer (mouse)     False
14     HNVPICEGYAL [ACTC1_Y168_Y168C]        Fer (mouse)     False
15      HHTDECEYDEL [TGM1_Y134_Y134C]        Fer (mouse)      True
16      MSLPGYKLVTG [GJA1_Y286_P283L]        Fer (mouse)     False
17   PEEKVYLSRGD [CRACR2A_Y141_H136P]        Fer (mouse)      True
18     PAVGIYNGNIN [CDCP1_Y707_D709G]        Fer (mouse)     False
19  ANAFIYDVQLP [L1CAM_Y420_V421D_YF]        Fer (mouse)      True
20      GSQERDFELVE [TSC2_Y407_Y407D]        Fer (mouse)     False
21     LQLLGDRPVYS [CHST6_Y358_Y358D]        Fer (mouse)      True
22     EKKDLYKAGEQ [CFH_Y1008_V1007L]        Fer (mouse)     False
23  LLPNAYIFVVQ [L1CAM_Y418_A415P_YF]        Fer (mouse)      True
24            TTEHIYGDNFF [UBA7_Y524]        Fer (mouse)      True
25  RKRQFYLFKGK [RSPO4_Y112_C107R_YF]        Fer (mouse)      True
26        FDGKDYIALNE [HLA-A_Y147_YF]        Fer (mouse)     False
27      VFAPDFIAGVS [NOB1_Y366_Y366F]        Fer (mouse)     False
28  RLLRGHDQSAF [HLA-C_Y137_Y137H_YF]        Fer (mouse)     False
